- Test system: MDA-MB-435
- assayText: NCI tumour cell line growth inhibition, 48 h
Activity calls are given as the source filed them. Rule as the data show it: active = GI50 up to about 1.1 µM and inactive = higher.
Would you mind answering with one of these outcomes? label 1 (active), label 0 (inactive)

molecule: Cc1sc2nc(-c3cc([N+](=O)[O-])c(Cl)cc3Cl)c(/C=N/NC(=N)N)n2c1C
classification: label 0
--
molecule: O=C1c2ccccc2CC12Cc1ccccc1C2
classification: label 0
--
molecule: CC(C)(C)C1CC[C@H](O)[C@H]([C@H](O)CC2CC(=O)N(c3ccccc3)C(=O)C2)C1 (stereo not given in full)
classification: label 0
--
molecule: COc1ccc(OC)c(C#Cc2ccc(OC)c(C(=O)NCCc3ccc(F)cc3)c2)c1
classification: label 0

Input: // param item: "CCC(=O)Nc1ccc(NCC(=O)Nc2ccc(Cl)cc2)cc1" ; yields the recorded call
Output: label 0

Input: What about "COc1cc2c(cc1OC)C(=O)N(c1ccc(OCCN3CCCC3)cc1)C2" ?
Output: label 0

Input: What about "O=C1CSc2nc3ccccc3n2/C=N\N1" ?
Output: label 0

Input: What about "CO/C=C(/C(=O)OC)c1ccccc1COc1cccc(C(F)(F)F)c1" ?
Output: label 1

Input: What about CCCCCC(=O)CCCCCCCC(O)CC(=O)OCC (stereo not given) ?
Output: label 0

Input: What about CC(C)CCCC(C)[C@H]1CCC2[C@@H]3CCC4Cc5nc6c(nc5C[C@]4(C)C3CC[C@@]21C)CC1CC[C@@H]2C(CC[C@@]3(C)C2CC[C@@H]3O)[C@@]1(C)C6 (stereo not given in full) ?
Output: label 0

Input: What about "O=c1[nH]c2cc3cccnc3c(Cl)c2nc1CBr" ?
Output: label 0

Input: What about "Cc1cc(OC(=O)Nc2ccc(Cl)cc2)ccc1C(=S)Nc1ccccc1" ?
Output: label 0

Input: What about "N#CCCN(CCC#N)c1ccc(/C=C2\SC(=S)NC2=O)cc1Br" ?
Output: label 0

Input: What about "O=c1[nH]nc(Cc2ccccc2)n1/N=C/c1cccs1" ?
Output: label 0

Input: What about CC(Cn1c(=O)oc2ccccc21)N(C)C (stereo not given) ?
Output: label 0

Input: What about "Cc1[nH]c2ccccc2c1C1=CC(=O)N(c2ccccc2)C1=O" ?
Output: label 0

Input: What about "N=C(N)N/N=C/c1ccc(O)c(C(=O)O)c1" ?
Output: label 0

Input: What about "O=C(O)CCC(=O)C(=O)O" ?
Output: label 0
